Reported self-splicing fitness (ln) by item:
Assay: self-splicing fitness, log relative to wild type (ln ratio); higher = more splicing; Tetrahymena group I intron in knt gene, E. coli kanamycin selection, DiMSum; sequences stand for … in CUCUCU…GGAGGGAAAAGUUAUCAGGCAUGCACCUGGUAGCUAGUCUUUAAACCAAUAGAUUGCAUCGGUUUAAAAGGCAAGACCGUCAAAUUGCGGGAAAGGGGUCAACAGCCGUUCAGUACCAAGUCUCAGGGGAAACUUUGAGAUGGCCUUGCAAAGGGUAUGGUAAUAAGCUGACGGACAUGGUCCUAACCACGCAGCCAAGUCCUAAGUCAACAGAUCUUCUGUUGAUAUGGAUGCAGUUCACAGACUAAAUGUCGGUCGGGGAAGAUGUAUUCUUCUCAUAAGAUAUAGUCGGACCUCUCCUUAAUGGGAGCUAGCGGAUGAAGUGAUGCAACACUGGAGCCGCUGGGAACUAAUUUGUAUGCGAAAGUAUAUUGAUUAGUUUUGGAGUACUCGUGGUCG;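 note: selection with 25 µg/mL kanamycin versus none on LB agar overnight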
Conditions: 37 °C
reported metric: self-splicing fitness (ln)

* CGCCAGCAAUAUUACGCCAU | -2.11
* GUAUAGCAAUAUUACGCAGA | -2.71
* AAGCAGCAAUAUUACGAACC | -0.526
* CAGAAGCAAUAUUACGCGCA | -0.337
* CCCCAGCAAUAUUACGUAAA | -2.89
* CCCCAGCAAUAUUACGUCUG | -2.04
* CCGAAGCAAUAUUACGCUGU | -2.84
* GCGAAGCAAUAUUACGUGUC | -3.21
* CUGCAGCAAUAUUACGGAGA | -2.83
* AUCUAGCAAUAUUACGUAAA | -1.29
* CCUAAGCAAUAUUACGUCCU | -2.04
* GCCCAGCAAUAUUACGGACG | -0.133
* CCCAAGCAAUAUUACGGAGA | -1.03
* AUUAAGCAAUAUUACGGGAG | -1.89
* AUUCAGCAAUAUUACGCGAA | -1.73
* CCCCAGCAAUAUUACGUAAU | -1.67
* AUCAAGCAAUAUUACGCGAU | -3.08
* GGCGAGCAAUAUUACGUAUA | -1.07
* CAAUAGCAAUAUUACGGGCC | -1.94
* GGUAAGCAAUAUUACGGUGU | -0.484
* CUUUAGCAAUAUUACGAUUG | 0.118
* CUGCAGCAAUAUUACGCCAG | -1.07
* CUGUAGCAAUAUUACGACUG | -0.0808
* CUAUAGCAAUAUUACGUGAU | -0.295
* UUCAAGCAAUAUUACGGUCG | -0.62
* AACUAGCAAUAUUACGUCGA | -0.975
* CGGGAGCAAUAUUACGCUGA | -2.14
